Origin of measurements: ChEMBL document CHEMBL1961873

Target: Testis-specific serine/threonine-protein kinase 1 (Homo sapiens) (UniProt Q9BXA7);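 further: mean percent inhibition of TSSK1, from the GSK PKIS screening dataset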
Sequence (whole entry): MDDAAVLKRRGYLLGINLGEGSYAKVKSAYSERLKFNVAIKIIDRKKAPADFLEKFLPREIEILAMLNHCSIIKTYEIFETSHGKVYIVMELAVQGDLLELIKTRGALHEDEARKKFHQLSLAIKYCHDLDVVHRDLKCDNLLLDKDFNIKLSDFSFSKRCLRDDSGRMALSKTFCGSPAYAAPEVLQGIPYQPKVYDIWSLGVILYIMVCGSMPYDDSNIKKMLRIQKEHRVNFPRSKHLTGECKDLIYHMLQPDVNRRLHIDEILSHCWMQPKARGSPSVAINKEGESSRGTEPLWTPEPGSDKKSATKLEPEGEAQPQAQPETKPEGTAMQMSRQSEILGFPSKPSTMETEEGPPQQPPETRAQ
Settings: at 0.1 µM
Please use satisfied whenever inhibition is not below 2%, and not satisfied whenever it is.

In plain terms: is recorded inhibition at least 2% for COc1ccc(-c2cc(-c3c[nH]nc3-c3ccccn3)ccn2)cc1 ?
satisfied

How about this compound: CC(C)(CO)CNC(=O)c1ccc2c(c1)/C(=N/Nc1ccc(S(N)(=O)=O)cc1)C(=O)N2
not satisfied

Okay, and CCn1c(-c2nonc2N)nc2c(C#CC(C)(C)O)ncc(OC3CCNCC3)c21 ?
satisfied

// next record COc1ccc2c(-c3ccnc(Nc4cccc(OC(F)(F)F)c4)n3)cnn2n1
satisfied

Then Cc1cccc2c1NC(=O)/C2=N\Nc1ccc(S(N)(=O)=O)cc1 ?
not satisfied

Again, but for O=S(=O)(CCNCc1ccc(-c2ccc3ncnc(Nc4ccc(OCc5cccc(F)c5)c(Cl)c4)c3c2)o1)c1ccccc1
satisfied

# iterate: CNC(=O)c1cccc(C#Cc2cncnc2Nc2ccc(OCc3cccc(F)c3)c(Cl)c2)c1
not satisfied

###

Biological target: Cytoplasmic tyrosine-protein kinase BMX (Homo sapiens) (UniProt P51813);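 further: reported value is the mean percent inhibition of BMX, from the GSK PKIS kinase inhibitor screen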
Sequence (whole entry): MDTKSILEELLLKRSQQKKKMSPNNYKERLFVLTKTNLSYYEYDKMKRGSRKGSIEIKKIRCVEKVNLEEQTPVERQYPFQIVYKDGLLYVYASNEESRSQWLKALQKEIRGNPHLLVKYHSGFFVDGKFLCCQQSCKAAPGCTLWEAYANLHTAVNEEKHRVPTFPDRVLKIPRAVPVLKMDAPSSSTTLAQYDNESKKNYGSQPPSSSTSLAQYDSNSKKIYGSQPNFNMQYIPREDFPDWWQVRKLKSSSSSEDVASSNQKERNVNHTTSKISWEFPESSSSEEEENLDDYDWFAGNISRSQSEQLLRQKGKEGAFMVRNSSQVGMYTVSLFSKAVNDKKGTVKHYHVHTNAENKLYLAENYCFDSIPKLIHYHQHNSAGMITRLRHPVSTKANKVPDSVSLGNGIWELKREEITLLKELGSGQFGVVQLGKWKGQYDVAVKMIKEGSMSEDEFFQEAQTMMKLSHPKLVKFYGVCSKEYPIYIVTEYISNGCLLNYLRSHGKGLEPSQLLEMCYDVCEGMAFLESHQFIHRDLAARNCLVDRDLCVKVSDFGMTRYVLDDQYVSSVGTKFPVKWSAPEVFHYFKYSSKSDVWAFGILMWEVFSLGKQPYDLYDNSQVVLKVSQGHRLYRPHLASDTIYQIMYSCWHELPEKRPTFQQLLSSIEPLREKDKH
Settings: at 1 µM
Property label: inhibition (%)
State the answer as a number, implicitly in %.

Could you tell me which inhibition is on file for CN1CCC(n2cnc(-c3ccc(F)cc3)c2-c2ccnc(N)n2)CC1 ?
4.58

Thanks! And CCn1c(-c2nonc2N)nc2c(C#CC(C)(C)O)ncc(OC3CCNCC3)c21 ?
7.52

# iterate: CS(=O)(=O)CCNCc1ccc(-c2ccc3ncnc(Nc4ccc(OCc5ccccc5)c(C(F)(F)F)c4)c3c2)o1
1.86

Param item: COc1cc2ncn(-c3cc(OCc4ccccc4C(F)(F)F)c(C(=O)N(C)C)s3)c2cc1OC
3.07

Request: COc1ccc(-c2cc(-c3c[nH]nc3-c3ccccn3)ccn2)cc1
5.27

What do you have for COc1cc(/C=N/Nc2ncnc3[nH]ncc23)ccc1O ?
32.4

Next compound up: CCOc1ccc2c(-c3ccnc(Nc4cccc(C(F)(F)F)c4)n3)cnn2n1
1.94

Check COc1ccc(-c2nn3ncccc3c2-c2ccnc(Nc3ccc4c(c3)OCCO4)n2)cc1 too.
8.65

Check COc1ccc2[nH]c3c4[nH]c5ccc(OC)cc5c4c4c(c3c2c1)C(=O)NC4=O too.
16.6

And Clc1ccc(-c2nn3ncccc3c2-c2ccnc(Nc3ccccc3)n2)cc1 ?
13.9
